Molecular target: Alpha-2A adrenergic receptor (Homo sapiens); further: assay procedure not described here
Sequence (P08913 whole entry): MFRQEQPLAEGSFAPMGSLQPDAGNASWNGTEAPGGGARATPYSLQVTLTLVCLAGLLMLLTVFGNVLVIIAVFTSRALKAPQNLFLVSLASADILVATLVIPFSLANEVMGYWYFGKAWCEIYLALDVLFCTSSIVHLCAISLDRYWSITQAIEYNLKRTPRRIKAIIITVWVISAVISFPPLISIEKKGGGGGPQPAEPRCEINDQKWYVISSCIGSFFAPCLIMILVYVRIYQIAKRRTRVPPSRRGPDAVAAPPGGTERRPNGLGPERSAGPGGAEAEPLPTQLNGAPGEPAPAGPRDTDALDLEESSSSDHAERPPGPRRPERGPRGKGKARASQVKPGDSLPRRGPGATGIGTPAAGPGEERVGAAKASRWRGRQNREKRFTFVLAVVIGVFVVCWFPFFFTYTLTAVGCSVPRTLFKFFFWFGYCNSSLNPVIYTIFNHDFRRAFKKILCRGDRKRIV
Type: functional, cell-based
Recorded Endpoint: AC50

Some compounds with recorded AC50:
c1ccc([C@H]2CN3CCSC3=N2)cc1	> 30 µM
CC[C@H]1[C@@H](O)[C@@H]2[C@H](CC[C@]3(C)[C@@H]([C@H](C)CCC(=O)O)CC[C@@H]23)[C@@]2(C)CC[C@@H](O)C[C@@H]12	11 µM
Cc1cn([C@H]2C[C@H](N=[N+]=[N-])[C@@H](CO)O2)c(=O)[nH]c1=O	> 10 µM
CCC1(CC)C(=O)NCC(C)C1=O (stereo not drawn)	> 30 µM
Cc1cccc(Nc2ccccc2C(=O)O)c1C	> 10 µM

Reported AC50 of "CC(C)(C)C(=O)Oc1ccc(S(=O)(=O)Nc2ccccc2C(=O)NCC(=O)O)cc1" : > 30 µM

Reported AC50 of CC(=O)NCCCS(=O)(=O)O [ACAMPROSATE] : > 30 µM

Reported AC50 of "CCN1CCN(C(=O)N[C@@H](C(=O)N[C@@H]2C(=O)N3C(C(=O)O)=C(CSc4nnnn4C)CS[C@H]23)c2ccc(O)cc2)C(=O)C1=O" : > 30 µM
